# Test system: 156681-154-R-J1-PDC complex spheroid viability
# assay.procedure: Anticancer human tumor 156681-154-R-J1-PDC patient-derived melanoma cell line growth inhibition [CLK]; active = viability on the fitted dose curve at most 10% of control; inactive = the rest
# condition: second compound 3.16 µM; first compound 0.1 µM
Hello, when you answer, please use one of the following outcomes: TRUE (active), FALSE (inactive)

As a guide, the following entries are already answered.
>  <compound>
COC1C=CCC(C)C(C)S(=O)(=O)NC(=O)c2ccc3c(c2)N(CC2CCC21)CC1(CCCc2cc(Cl)ccc21)CO3 (stereo not given) + CN1CCN(c2cc(C(=O)Nc3cc4cc(-c5cnn(C)c5)ccc4cn3)ccn2)CC1

>  <classification>
TRUE

$$$$
>  <compound>
CC(CO)NC(=O)c1cc(-c2ccc(Cl)cc2)nn(-c2cnn(C)c2)c1=O (stereo not given) + CN1CCN(c2cc(C(=O)Nc3cc4cc(-c5cnn(C)c5)ccc4cn3)ccn2)CC1

>  <classification>
TRUE

$$$$
>  <compound>
CC1(C)CCC(CN2CCN(c3ccc(C(=O)NS(=O)(=O)c4ccc(NCC5CCOCC5)c([N+](=O)[O-])c4)c(Oc4cnc5[nH]ccc5c4)c3)CC2)=C(c2ccc(Cl)cc2)C1 + CN1CCN(c2cc(C(=O)Nc3cc4cc(-c5cnn(C)c5)ccc4cn3)ccn2)CC1

>  <classification>
TRUE

$$$$
>  <compound>
CC(Nc1ccc2c(c1)OCCn1cc(N3C(=O)OCC3C(F)F)nc1-2)C(N)=O (stereo not given) + CNC(=O)c1ccc(Nc2nc(OC3CCCC3)c3c(-c4ccc5nc(C)oc5c4)c[nH]c3n2)c(OC)c1

>  <classification>
FALSE

$$$$

From here, focus on the item given below.
What call does the record list for CCc1c2c(nc3ccc(O)cc13)-c1cc3c(c(=O)n1C2)COC(=O)[C@]3(O)CC + CN1CCN(c2cc(C(=O)Nc3cc4cc(-c5cnn(C)c5)ccc4cn3)ccn2)CC1 ? TRUE

* * *

# Tested on: 156681-154-R-J1-PDC complex spheroid viability
# assay.procedure: Anticancer human tumor 156681-154-R-J1-PDC cell line growth inhibition [CLK];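 also: spheroids exposed to the agents for seven days; 100% = DMSO vehicle control viability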
# condition: second compound 3.16 µM; first compound 1 µM; hits give low values
# label = fulfilled if viability, T/C < 20% else not fulfilled

>  <compound>
O=c1[nH]cc(F)c(=O)[nH]1 + CNC(=O)c1ccc(Nc2nc(OC3CCCC3)c3c(-c4ccc5nc(C)oc5c4)c[nH]c3n2)c(OC)c1

>  <system.tested>
156681-154-R-J1-PDC complex spheroid viability

>  <classification>
not fulfilled

$$$$
>  <compound>
Nc1ccccc1NC(=O)c1ccc(CNC(=O)OCc2cccnc2)cc1 + CNC(=O)c1ccc(Nc2nc(OC3CCCC3)c3c(-c4ccc5nc(C)oc5c4)c[nH]c3n2)c(OC)c1

>  <system.tested>
156681-154-R-J1-PDC complex spheroid viability

>  <classification>
not fulfilled

$$$$
>  <compound>
COc1cccc2c1C(=O)c1c(O)c3c(c(O)c1C2=O)CC(O)(C(=O)CO)CC3OC1CC(N)C(O)C(C)O1 (stereo unspecified) + CNC(=O)c1ccc(Nc2nc(OC3CCCC3)c3c(-c4ccc5nc(C)oc5c4)c[nH]c3n2)c(OC)c1

>  <system.tested>
156681-154-R-J1-PDC complex spheroid viability

>  <classification>
fulfilled

$$$$
>  <compound>
CC(=O)O[C@H]1C(=O)[C@@]2(C)[C@H]([C@H](OC(=O)c3ccccc3)[C@]3(O)C[C@H](OC(=O)[C@H](O)[C@@H](NC(=O)c4ccccc4)c4ccccc4)C(C)=C1C3(C)C)[C@]1(OC(C)=O)CO[C@@H]1C[C@@H]2O + CNC(=O)c1ccc(Nc2nc(OC3CCCC3)c3c(-c4ccc5nc(C)oc5c4)c[nH]c3n2)c(OC)c1

>  <system.tested>
156681-154-R-J1-PDC complex spheroid viability

>  <classification>
not fulfilled

$$$$
>  <compound>
CC(Nc1ccc2c(c1)OCCn1cc(N3C(=O)OCC3C(F)F)nc1-2)C(N)=O (stereo unspecified) + CN1CCN(c2cc(C(=O)Nc3cc4cc(-c5cnn(C)c5)ccc4cn3)ccn2)CC1

>  <system.tested>
156681-154-R-J1-PDC complex spheroid viability

>  <classification>
fulfilled

$$$$

Bench note: check whether CC1COCCN1c1cc(C2(S(C)(=N)=O)CC2)nc(-c2ccnc3[nH]ccc23)n1 (stereo unspecified) + CN1CCN(c2cc(C(=O)Nc3cc4cc(-c5cnn(C)c5)ccc4cn3)ccn2)CC1 shows viability, T/C below 20% fulfilled

And what about the compound CC(Nc1ccc2c(c1)OCCn1cc(N3C(=O)OCC3C(F)F)nc1-2)C(N)=O (stereo unspecified) + CNC(=O)c1ccc(Nc2nc(OC3CCCC3)c3c(-c4ccc5nc(C)oc5c4)c[nH]c3n2)c(OC)c1 ? fulfilled

And what about the compound CC(CO)NC(=O)c1cc(-c2ccc(Cl)cc2)nn(-c2cnn(C)c2)c1=O (stereo unspecified) + CN1CCN(c2cc(C(=O)Nc3cc4cc(-c5cnn(C)c5)ccc4cn3)ccn2)CC1 ? fulfilled

And what about the compound C=C(F)C(=O)N1CCN(c2nc(OCC3CCCN3C)nc3c2CCN(c2cccc4cccc(Cl)c24)C3)CC1CC#N (stereo unspecified) + CN1CCN(c2cc(C(=O)Nc3cc4cc(-c5cnn(C)c5)ccc4cn3)ccn2)CC1 ? fulfilled

And what about the compound COc1ccc([C@@H](O)c2cc(-c3ncnc4cc(N5CCOCC5)ccc34)c(F)cc2Cl)nn1 + CNC(=O)c1ccc(Nc2nc(OC3CCCC3)c3c(-c4ccc5nc(C)oc5c4)c[nH]c3n2)c(OC)c1 ? not fulfilled

* * *

# Test system: 156681-154-R-J1-PDC complex spheroid viability
# assay.procedure: Anticancer human tumor 156681-154-R-J1-PDC cell line growth inhibition [CLK];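 also: spheroids exposed to the agents for seven days; 100% = DMSO vehicle control viability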
# condition: second compound 1 µM; first compound 3.16 µM; hits give low values
# Description: A high-throughput screen of multi-cell type tumor spheroids was designed to identify active combinations of […] and targeted small molecules. Complex spheroids include a stromal component modeled by human endothelial cells (HUVEC) and fibroblasts modeled by human mesenchymal stem cells (MSCs). […] Compounds. […] If the clinical Cmax for an agent had not been determined, the highest concentration tested was 10 microM. […]
Listing: viability, T/C of selected molecules

These solved cases illustrate the format of a correct answer.
>  <molecule>
Nc1ccccc1NC(=O)c1ccc(CNC(=O)OCc2cccnc2)cc1 + CN1CCN(c2cc(C(=O)Nc3cc4cc(-c5cnn(C)c5)ccc4cn3)ccn2)CC1

>  <readout.type>
viability, T/C

>  <result>
2.99%

$$$$
>  <molecule>
COc1cccc2c1C(=O)c1c(O)c3c(c(O)c1C2=O)CC(O)(C(=O)CO)CC3OC1CC(N)C(O)C(C)O1 (stereo not given) + CN1CCN(c2cc(C(=O)Nc3cc4cc(-c5cnn(C)c5)ccc4cn3)ccn2)CC1

>  <readout.type>
viability, T/C

>  <result>
0.76%

$$$$
>  <molecule>
Nc1ccn(C2OC(CO)C(O)C2(F)F)c(=O)n1 (stereo not given) + CN1CCN(c2cc(C(=O)Nc3cc4cc(-c5cnn(C)c5)ccc4cn3)ccn2)CC1

>  <readout.type>
viability, T/C

>  <result>
0.78%

$$$$

Form field: viability, T/C recorded for CC1COCCN1c1cc(C2(S(C)(=N)=O)CC2)nc(-c2ccnc3[nH]ccc23)n1 (stereo not given) + CN1CCN(c2cc(C(=O)Nc3cc4cc(-c5cnn(C)c5)ccc4cn3)ccn2)CC1 with 156681-154-R-J1-PDC complex spheroid viability (enter value) 0.89%

And what about the molecule CC(=O)O[C@H]1C(=O)[C@@]2(C)[C@H]([C@H](OC(=O)c3ccccc3)[C@]3(O)C[C@H](OC(=O)[C@H](O)[C@@H](NC(=O)c4ccccc4)c4ccccc4)C(C)=C1C3(C)C)[C@]1(OC(C)=O)CO[C@@H]1C[C@@H]2O + CN1CCN(c2cc(C(=O)Nc3cc4cc(-c5cnn(C)c5)ccc4cn3)ccn2)CC1 ? 0.12%

* * *

# Tested on: 156681-154-R-J1-PDC complex spheroid viability
# assay.procedure: Anticancer human tumor 156681-154-R-J1-PDC cell line growth inhibition [CLK];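 also: spheroids exposed to the agents for seven days; 100% = DMSO vehicle control viability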
# condition: second compound 1 µM; first compound 0.0316 µM; hits give low values
Listing: viability, T/C of selected molecules
// note: answer is a bare numeric in %

These solved cases illustrate the format of a correct answer.
>  <molecule>
Nc1ccn(C2OC(CO)C(O)C2(F)F)c(=O)n1 (configuration not stated) + CNC(=O)c1ccc(Nc2nc(OC3CCCC3)c3c(-c4ccc5nc(C)oc5c4)c[nH]c3n2)c(OC)c1

>  <system.tested>
156681-154-R-J1-PDC complex spheroid viability

>  <value.units>
%

>  <quantitative.result>
20.5

$$$$
>  <molecule>
CCCS(=O)(=O)Nc1ccc(F)c(C(=O)c2c[nH]c3ncc(-c4ccc(Cl)cc4)cc23)c1F + CNC(=O)c1ccc(Nc2nc(OC3CCCC3)c3c(-c4ccc5nc(C)oc5c4)c[nH]c3n2)c(OC)c1

>  <system.tested>
156681-154-R-J1-PDC complex spheroid viability

>  <value.units>
%

>  <quantitative.result>
45.8

$$$$
>  <molecule>
O=C(c1cc(Cc2n[nH]c(=O)c3ccccc23)ccc1F)N1CCN(C(=O)C2CC2)CC1 + CNC(=O)c1ccc(Nc2nc(OC3CCCC3)c3c(-c4ccc5nc(C)oc5c4)c[nH]c3n2)c(OC)c1

>  <system.tested>
156681-154-R-J1-PDC complex spheroid viability

>  <value.units>
%

>  <quantitative.result>
59.7

$$$$
>  <molecule>
Nc1ccn(C2OC(CO)C(O)C2(F)F)c(=O)n1 (configuration not stated) + CN1CCN(c2cc(C(=O)Nc3cc4cc(-c5cnn(C)c5)ccc4cn3)ccn2)CC1

>  <system.tested>
156681-154-R-J1-PDC complex spheroid viability

>  <value.units>
%

>  <quantitative.result>
0.16

$$$$
>  <molecule>
CCN1CCN(Cc2ccc(Nc3ncc(F)c(-c4cc(F)c5nc(C)n(C(C)C)c5c4)n3)nc2)CC1 + CN1CCN(c2cc(C(=O)Nc3cc4cc(-c5cnn(C)c5)ccc4cn3)ccn2)CC1

>  <system.tested>
156681-154-R-J1-PDC complex spheroid viability

>  <value.units>
%

>  <quantitative.result>
3.58

$$$$
>  <molecule>
Nc1ccccc1NC(=O)c1ccc(CNC(=O)OCc2cccnc2)cc1 + CN1CCN(c2cc(C(=O)Nc3cc4cc(-c5cnn(C)c5)ccc4cn3)ccn2)CC1

>  <system.tested>
156681-154-R-J1-PDC complex spheroid viability

>  <value.units>
%

>  <quantitative.result>
0.22

$$$$
>  <molecule>
COC1C=CCC(C)C(C)S(=O)(=O)NC(=O)c2ccc3c(c2)N(CC2CCC21)CC1(CCCc2cc(Cl)ccc21)CO3 (configuration not stated) + CN1CCN(c2cc(C(=O)Nc3cc4cc(-c5cnn(C)c5)ccc4cn3)ccn2)CC1

>  <system.tested>
156681-154-R-J1-PDC complex spheroid viability

>  <value.units>
%

>  <quantitative.result>
0.2

$$$$
>  <molecule>
Cn1ncnc1[C@H]1c2n[nH]c(=O)c3cc(F)cc(c23)N[C@@H]1c1ccc(F)cc1 + CNC(=O)c1ccc(Nc2nc(OC3CCCC3)c3c(-c4ccc5nc(C)oc5c4)c[nH]c3n2)c(OC)c1

>  <system.tested>
156681-154-R-J1-PDC complex spheroid viability

>  <value.units>
%

>  <quantitative.result>
53.6

$$$$

Consider the molecule C=C(F)C(=O)N1CCN(c2nc(OCC3CCCN3C)nc3c2CCN(c2cccc4cccc(Cl)c24)C3)CC1CC#N (configuration not stated) + CNC(=O)c1ccc(Nc2nc(OC3CCCC3)c3c(-c4ccc5nc(C)oc5c4)c[nH]c3n2)c(OC)c1 and give its measured viability, T/C. 59.3

And what about the molecule Nc1ccccc1NC(=O)c1ccc(CNC(=O)OCc2cccnc2)cc1 + CNC(=O)c1ccc(Nc2nc(OC3CCCC3)c3c(-c4ccc5nc(C)oc5c4)c[nH]c3n2)c(OC)c1 ? 64.6

And what about the molecule COC1C=CCC(C)C(C)S(=O)(=O)NC(=O)c2ccc3c(c2)N(CC2CCC21)CC1(CCCc2cc(Cl)ccc21)CO3 (configuration not stated) + CNC(=O)c1ccc(Nc2nc(OC3CCCC3)c3c(-c4ccc5nc(C)oc5c4)c[nH]c3n2)c(OC)c1 ? 43.4

And what about the molecule CC1COCCN1c1cc(C2(S(C)(=N)=O)CC2)nc(-c2ccnc3[nH]ccc23)n1 (configuration not stated) + CNC(=O)c1ccc(Nc2nc(OC3CCCC3)c3c(-c4ccc5nc(C)oc5c4)c[nH]c3n2)c(OC)c1 ? 63.4

Where these numbers come from: PubChem BioAssay AID2060627
